# assay summary: Cytotoxicity against human HepG2 cells assessed as reduction in cell viability after 24 hrs by SRB assay
# Assay type: toxicity, cell-based
Measured IC50 at 24 h of individual entries

Fill in reported IC50 at 24 h for this entry: "C[C@@H]1CC=C2[C@H]3[C@H](O)[C@@](C)(O)CC[C@@H]3[C@@](C)(O)CC[C@]1(C)[C@@H]2C"
> 10 µM

Check the records and state IC50 at 24 h for "C/C1=C/C[C@@]2(C)[C@H](C)CC=C([C@@H]3[C@@H]1CC[C@](C)(O)[C@H]3O)[C@H]2C"
> 10 µM

Tell me measured IC50 at 24 h for "C=C1CC[C@@]2(C)[C@H](C)C[C@@H]3O[C@]3([C@@H]3[C@@H]1CC[C@](C)(O)[C@H]3O)[C@H]2C" please.
> 10 µM

Indicate the recorded IC50 at 24 h value for this compound: "CC1=CC[C@@H]2[C@@]3(C)CC[C@@]4(C)[C@H](C)[C@@H](O)C=C5[C@@]2(O[C@@H]3[C@]54O)[C@H]1O"
> 10 µM

***
Note IC50 at 24 h for the compound shown: "CC1=CC[C@H]2[C@]3(O[C@H]4[C@]2(C)[C@@H](O)C[C@@]2(C)[C@H](C)CC=C3[C@@]42O)[C@H]1O"
> 10 µM

Quickly give me recorded IC50 at 24 h for "C=C1CC[C@@]2(C)[C@H](C)CC=C([C@@H]3[C@@H]1CC[C@](C)(O)[C@H]3O)[C@H]2C"
> 10 µM

Give the measured IC50 at 24 h for "CC1=CC[C@@H]2[C@@]3(C)CC[C@]4(C)C5=C([C@@H](O)C[C@H]4C)[C@@]2(O[C@H]53)[C@H]1O"
> 10 µM

# return recorded IC50 at 24 h for entry "CC1=CC[C@@H]2[C@@]3(C)CC[C@@]4(C)[C@H](C)CC(=O)[C@H]5[C@@]2(O[C@@H]3[C@]54O)[C@H]1O"
> 10 µM
